// data source = patent US20120184590A1

assay: Pharmacokinetics of SR13668 in monkeys after i.v. and oral gavage dosing; format: in vivo, cynomolgus monkeys (macaca fasicularis); details: male, cynomolgus monkey, plasma, po, 7.02 mg/kg, plasma, 84.2 mg/m^2 (7.02 mg/kg) oral gavage, PEG400:Labrasol 1:1 v/v, seventh daily dose, fed
PARAMETER_MEASURED: Cmax (ng/mL)
Answer with a number only, understood to be in ng/mL.

Lookup result for CCOC(=O)c1ccc2[nH]c3c(OC)c4[nH]c5ccc(C(=O)OCC)cc5c4cc3c2c1 ; measured Cmax: 40.5

====

assay: Solubility of SR13668 in various solvents; format: physicochemical; conditions: 65 °C, organic solvent or mixture, thermodynamic from solid; Gelucire 50/13; 65-70 ° C.; UV
PARAMETER_MEASURED: solubility (µg/mL)
Answer with a number only, understood to be in µg/mL.

Lookup result for CCOC(=O)c1ccc2[nH]c3c(OC)c4[nH]c5ccc(C(=O)OCC)cc5c4cc3c2c1 ; measured solubility: 4150
